target: opioid receptor (Mus musculus); construct: Five CF-1 male mice (Charles River, Portage, MI); from tissue; host or cells: living CF-1 male mice (whole animal, endogenous receptor); test: in vivo; parameters: species or system CF-1 male mice; details: sc; mouse writhing test; […]; s.c. 20 min before acetic acid; read-out: AD50 (the source's name)
Sequence (P42866 whole entry): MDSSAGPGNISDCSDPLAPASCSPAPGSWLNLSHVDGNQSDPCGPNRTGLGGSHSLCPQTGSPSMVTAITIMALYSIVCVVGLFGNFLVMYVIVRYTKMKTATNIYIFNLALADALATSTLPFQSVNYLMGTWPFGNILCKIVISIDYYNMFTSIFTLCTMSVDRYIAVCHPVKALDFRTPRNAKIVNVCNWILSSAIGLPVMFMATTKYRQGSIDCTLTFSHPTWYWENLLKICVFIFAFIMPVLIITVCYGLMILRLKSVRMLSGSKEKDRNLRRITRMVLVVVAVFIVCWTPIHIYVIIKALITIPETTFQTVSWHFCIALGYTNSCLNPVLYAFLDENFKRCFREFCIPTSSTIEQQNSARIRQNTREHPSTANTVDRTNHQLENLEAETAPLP
EXPERIMENTAL READOUT: ED50

response.value for `CC(C)COC(=O)CCCC(=O)N[C@H](CC1CCCCC1)CN1CC[C@](C)(c2cccc(O)c2)[C@H](C)C1` (field: ED50) = > 40 mg/kg

response.value for C[C@@H]1CN(C[C@H](CC2CCCCC2)NC(=O)CCCC(=O)O)CC[C@]1(C)c1cccc(O)c1 [Example 47D] (field: ED50) = > 40 mg/kg

response.value for COC1CCC(OC(=O)CCCC(=O)N[C@@H](CC2CCCCC2)CN2CC[C@](C)(c3cccc(O)c3)[C@H](C)C2)CC1 (stereo partly drawn) (field: ED50) = > 40 mg/kg
